Collected set of pIC50 measured with Inosine-5'-monophosphate dehydrogenase 2 (Homo sapiens, UniProt P12268) across studies.
pIC50: −log10 of the molar value.
Rule: pIC50 of 7 or more gives label 1; anything lower gives label 0.

Previously resolved entries follow.
{"Compound": "COc1c(C)c2c(c(O)c1C/C=C(\\C)CN(CCP(=O)(O)O)C(C)=O)C(=O)OC2", "Target of assay": "Inosine-5'-monophosphate dehydrogenase 2 (Homo sapiens, UniProt P12268)", "Class name": "label 0"}
{"Compound": "COc1cc2nc(-c3ccc4c(c3)C([N+](C)(C)C)CC4)cc(O)c2cc1-c1cnco1 (stereo not given)", "Target of assay": "Inosine-5'-monophosphate dehydrogenase 2 (Homo sapiens, UniProt P12268)", "Class name": "label 1"}
{"Compound": "COc1cc2nc(-c3ccc4c(c3)N(C(C)=O)CCO4)cc(O)c2cc1-c1cnco1", "Target of assay": "Inosine-5'-monophosphate dehydrogenase 2 (Homo sapiens, UniProt P12268)", "Class name": "label 1"}
{"Compound": "NC(=O)c1csc([C@@H]2O[C@H](COP(=O)(O)OP(=O)(O)OC[C@@H]3O[C@H](n4cnc5c(N)ncnc54)[C@@H](F)[C@H]3O)[C@@H](O)[C@H]2O)n1", "Target of assay": "Inosine-5'-monophosphate dehydrogenase 2 (Homo sapiens, UniProt P12268)", "Class name": "label 0"}

Problem: Determine whether this compound has pIC50 no lower than 7: `Cn1cc(C#N)c2ccc(Nc3ncc(-c4ccc(CNC(=O)C(C)(C)C)cc4)o3)cc21`
Result: label 0

Problem: Determine whether this compound has pIC50 no lower than 7: `COc1cc(NC(=O)C(=O)Nc2cccc(CNC(=O)O[C@@H]3CCOC3)c2)ccc1-c1cnco1`
Result: label 1

* * *

Collected set of pIC50 measured with Inosine-5'-monophosphate dehydrogenase 2 (Homo sapiens, UniProt P12268) across studies.
# pIC50: negative log10 of molar concentration; output just the value

Look over these answered cases.
{"Smiles string": "CNc1nc(Nc2ccc(-c3cnco3)c(OC)c2)nc(N2CCOCC2)n1", "pIC50": 6.80}
{"Smiles string": "C[C@@H](NC(=O)c1ccc2c(=O)c3ccccc3[nH]c2c1)c1ccccc1", "pIC50": 7.02}
{"Smiles string": "COc1cc2nc(-c3cccc(N4CCCC4)c3)cc(O)c2cc1-c1cnco1", "pIC50": 7.60}
{"Smiles string": "COc1cc2nc(C)cc(O)c2cc1-c1cnco1", "pIC50": 6.96}
{"Smiles string": "COc1c(C)c2c(c(O)c1C/C=C(\\C)CNCCP(=O)(O)O)C(=O)OC2", "pIC50": 6.30}
{"Smiles string": "COc1c(C)c2c(c(O)c1C/C=C(\\C)[C@H](CC(=O)O)O[C@H]1O[C@H](CO)[C@@H](O)[C@H](O)[C@H]1O)C(=O)OC2", "pIC50": 5.19}

Tested system Inosine-5'-monophosphate dehydrogenase 2 (Homo sapiens, UniProt P12268); pIC50 recorded for `COc1cc(NC(=O)C(=O)NC(C)(C)CO)ccc1-c1cnco1` was 7.72

Tested system Inosine-5'-monophosphate dehydrogenase 2 (Homo sapiens, UniProt P12268); pIC50 recorded for `COc1c(C)c2c(c(O)c1C/C=C(\C)CN(CCP(=O)(O)O)S(C)(=O)=O)C(=O)OC2` was 6.30

Tested system Inosine-5'-monophosphate dehydrogenase 2 (Homo sapiens, UniProt P12268); pIC50 recorded for `COc1cc2nc(-c3ccc(Br)cc3)cc(O)c2cc1-c1cnco1` was 8.30

* * *

Collected set of pIC50 measured with UniProt P12268 across studies.
# pIC50: negative log10 of molar concentration; output just the value

// pIC50 lookup, compound = `COc1cc(Nc2nnc(-c3ccccc3)o2)ccc1-c1cnco1` , result: 7.36

// pIC50 lookup, compound = `COc1cc2nc(S)nc(O)c2cc1-c1cnco1` , result: 7.52

// pIC50 lookup, compound = `Cc1ccc(NC(=O)Nc2ccc3cnccc3c2)cc1` , result: 6.61

// pIC50 lookup, compound = `COc1cc2[nH]c3c(c2cc1-c1cnco1)CC(=O)CC3` , result: 6.54

* * *

Collected set of IC50 measured with Inosine-5'-monophosphate dehydrogenase 2 (Homo sapiens, UniProt P12268) across studies.
Friendly reminder: IC50 below 30 nM is 1, at or above is -1.

Previously resolved entries follow.
{"Molecule": "COC/C(C)=C/Cc1c(O)c2c(c(C)c1OC)COC2=O", "Target of assay": "Inosine-5'-monophosphate dehydrogenase 2 (Homo sapiens, UniProt P12268)", "Class name": -1}
{"Molecule": "COc1cc2nc(-c3ccc(C)c(OCC4CCCO4)c3)cc(O)c2cc1-c1cnco1 (configuration not stated)", "Target of assay": "Inosine-5'-monophosphate dehydrogenase 2 (Homo sapiens, UniProt P12268)", "Class name": 1}
{"Molecule": "COc1cc(NC(=O)C(=O)NCc2ccccc2)ccc1-c1cnco1", "Target of assay": "Inosine-5'-monophosphate dehydrogenase 2 (Homo sapiens, UniProt P12268)", "Class name": -1}
{"Molecule": "Cc1ccccc1NC(=O)Nc1ccc2c(-c3cnco3)c[nH]c2c1", "Target of assay": "Inosine-5'-monophosphate dehydrogenase 2 (Homo sapiens, UniProt P12268)", "Class name": -1}
{"Molecule": "CC(Oc1ccc(Cl)cc1Cl)C(=O)Nc1ccc2oc(-c3cccnc3)nc2c1 (configuration not stated)", "Target of assay": "Inosine-5'-monophosphate dehydrogenase 2 (Homo sapiens, UniProt P12268)", "Class name": -1}
{"Molecule": "COc1cc2nc(-c3ccc4c(c3)C(O)CC4)cc(O)c2cc1-c1cnco1 (configuration not stated)", "Target of assay": "Inosine-5'-monophosphate dehydrogenase 2 (Homo sapiens, UniProt P12268)", "Class name": 1}
{"Molecule": "COc1cc2nc(-c3ccc4c(c3)[C@@H](N(C)C)[C@H](OC)C4)cc(O)c2cc1-c1cnco1", "Target of assay": "Inosine-5'-monophosphate dehydrogenase 2 (Homo sapiens, UniProt P12268)", "Class name": 1}
{"Molecule": "CC(C)(NC(=O)c1cc2[nH]c3ccccc3c(=O)c2cc1F)c1cccnc1", "Target of assay": "Inosine-5'-monophosphate dehydrogenase 2 (Homo sapiens, UniProt P12268)", "Class name": 1}

Problem: Quick check: IC50 of CC(Oc1ccccc1)c1cn(-c2ccc3oc(-c4cncs4)nc3c2)nn1 (configuration not stated) under 30 nM?
Result: -1

Problem: Quick check: IC50 of COc1cc2c(cc1-c1cnco1)C(=O)N(C)C(C)(/C=C/c1ccccc1)N2 (configuration not stated) under 30 nM?
Result: -1

Problem: Quick check: IC50 of `Cc1ncoc1-c1ccc(NC(=O)C(=O)NC(C)(C)C)cc1` under 30 nM?
Result: -1

Problem: Quick check: IC50 of `CCc1c(C)c2c(c(O)c1C/C=C(\C)CP(=O)(O)O)C(=O)OC2` under 30 nM?
Result: 1

* * *

Collected set of IC50 measured with Inosine-5'-monophosphate dehydrogenase 2 (Homo sapiens, UniProt P12268) across studies.
The response must be a number in nM with no trailing unit.

Look over these answered cases.
{"Compound": "NC(=O)c1csc([C@@H]2O[C@H](COP(=O)(O)CP(=O)(O)OC[C@@H]3O[C@H](n4cnc5c(N)ncnc54)[C@H](F)[C@H]3O)[C@@H](O)[C@H]2O)n1", "Target of assay": "Inosine-5'-monophosphate dehydrogenase 2 (Homo sapiens, UniProt P12268)", "Reading unit": "nM", "IC50": 6000}
{"Compound": "COc1c(C)c2c(c(O)c1C/C=C(\\C)CCP(=O)(O)O)C(=O)OC2", "Target of assay": "Inosine-5'-monophosphate dehydrogenase 2 (Homo sapiens, UniProt P12268)", "Reading unit": "nM", "IC50": 96}
{"Compound": "CC(C)(NC(=O)c1cc2[nH]c3ccccc3c(=O)c2cc1F)c1ccc(S(C)(=O)=O)cc1", "Target of assay": "Inosine-5'-monophosphate dehydrogenase 2 (Homo sapiens, UniProt P12268)", "Reading unit": "nM", "IC50": 12}
{"Compound": "Cc1[nH]c2ccccc2c1-c1ccncc1", "Target of assay": "Inosine-5'-monophosphate dehydrogenase 2 (Homo sapiens, UniProt P12268)", "Reading unit": "nM", "IC50": 343}
{"Compound": "O=P(O)(O)OC[C@@H]1OC(n2cnc3c(O)nc(CCc4ccccc4)nc32)[C@@H](O)[C@H]1O (stereo not given in full)", "Target of assay": "Inosine-5'-monophosphate dehydrogenase 2 (Homo sapiens, UniProt P12268)", "Reading unit": "nM", "IC50": 460000}

// IC50 lookup, compound = `COc1cc2nc(-c3cccc(S(C)(=O)=O)c3)cc(O)c2cc1-c1cnco1` , result: 160

// IC50 lookup, compound = `Brc1ccc2c(-c3ccncc3)c[nH]c2c1` , result: 408

// IC50 lookup, compound = `COc1c(C)c2c(c(O)c1C/C=C(C)/C=C/P(=O)(O)O)C(=O)OC2` , result: 506

// IC50 lookup, compound = `COc1cc2nc(-c3ccoc3)cc(O)c2cc1-c1cnco1` , result: 32

// IC50 lookup, compound = `CCc1c(C)c2c(c(O)c1C/C=C(\C)CN(CCP(=O)(O)O)S(N)(=O)=O)C(=O)OC2` , result: 24

// IC50 lookup, compound = `COc1cc2nc(-c3ccc(C)c(Br)c3)cc(O)c2cc1-c1cnco1` , result: 19

// IC50 lookup, compound = `CCc1c(C)c2c(c(O)c1C/C=C(\C)CN(CCP(=O)(O)O)S(C)(=O)=O)C(=O)OC2` , result: 68

// IC50 lookup, compound = `Cn1cc(C#N)c2ccc(Nc3ncc(-c4cccc(CNC(=O)OCCC#N)c4)o3)cc21` , result: 240
